Target: Solute carrier organic anion transporter family member 1B3 (Homo sapiens)
Sequence (Q9NPD5 whole entry): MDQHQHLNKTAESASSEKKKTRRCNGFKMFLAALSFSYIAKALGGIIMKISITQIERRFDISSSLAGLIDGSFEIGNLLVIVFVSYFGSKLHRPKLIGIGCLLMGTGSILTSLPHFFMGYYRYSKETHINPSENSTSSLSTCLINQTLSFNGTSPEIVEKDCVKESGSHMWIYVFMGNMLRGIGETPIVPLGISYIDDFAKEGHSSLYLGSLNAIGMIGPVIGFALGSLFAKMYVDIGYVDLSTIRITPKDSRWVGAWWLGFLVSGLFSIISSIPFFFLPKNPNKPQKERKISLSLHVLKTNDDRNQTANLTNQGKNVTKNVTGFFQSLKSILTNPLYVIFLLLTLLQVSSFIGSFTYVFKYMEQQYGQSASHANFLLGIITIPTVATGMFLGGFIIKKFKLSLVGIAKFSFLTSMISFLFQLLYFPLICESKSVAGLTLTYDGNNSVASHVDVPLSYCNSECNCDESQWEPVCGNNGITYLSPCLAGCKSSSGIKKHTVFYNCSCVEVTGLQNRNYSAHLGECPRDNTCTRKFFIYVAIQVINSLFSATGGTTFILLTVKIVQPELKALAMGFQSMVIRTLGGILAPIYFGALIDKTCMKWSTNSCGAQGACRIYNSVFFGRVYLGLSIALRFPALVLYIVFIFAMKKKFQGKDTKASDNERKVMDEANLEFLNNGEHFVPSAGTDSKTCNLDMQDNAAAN
Conditions: chinese hamster, cho, 10 µM
# if measured residual activity < 90%: 1  # else: 0

MOLECULE: CNC(C)(C)Cc1ccccc1.O=S(=O)(O)O
CLASSIFICATION: 0

For C=C(C)[C@@H]1[C@H]2OC(=O)[C@@H]1[C@]1(O)C[C@H]3O[C@]34C(=O)O[C@H]2[C@]14C , is the recorded residual activity below the cut-off of 90%?
0

For COc1ccc2c(c1)c(CC(=O)O)c(C)n2C(=O)c1ccc(Cl)cc1 , is the recorded residual activity below the cut-off of 90%?
1

For CC(N)C(=O)OC(C)(C)Cc1ccc(Cl)cc1 (stereo not drawn) [ALAPROCLATE] , is the recorded residual activity below the cut-off of 90%?
0

For O=C(C1CCCCC1)N1CC(=O)N2CCc3ccccc3C2C1 (stereo not drawn) , is the recorded residual activity below the cut-off of 90%?
0

For CC(=O)O[C@@H]1C[C@H]2C(C)(C)[C@@H](O)CC[C@]2(C)[C@H]2CC[C@@]3(C)[C@H](c4ccoc4)OC(=O)[C@H]4O[C@]43[C@@]21C [beta-DIHYDROGEDUNOL] , is the recorded residual activity below the cut-off of 90%?
1

---

target: Solute carrier organic anion transporter family member 1B3 (Homo sapiens); conditions: chinese hamster, cho, 10 µM
Quick reference: residual activity of the listed items.

COMPOUND: COc1cc2cc3c4cc(OC)c(OC)cc4cc[n+]3c(C)c2cc1OC.[Cl-]
MEASURED_VALUE: 150.5%
--
COMPOUND: C=N[C@@H](C(=O)N[C@@H]1C(=O)N2[C@@H]1SC(C)(C)[C@@H]2C(=O)[O-])c1ccccc1.[Na+]
MEASURED_VALUE: 54.33%
--
COMPOUND: COc1cc2c(cc1-c1cc3cc4ccoc4cc3oc1=O)OCO2
MEASURED_VALUE: 121.4%

Kindly review the next compound as well.
Per the records, this compound ( CC1(C)O[C@@H]2C[C@H]3[C@@H]4C[C@H](F)C5=CC(=O)CC[C@]5(C)[C@H]4[C@@H](O)C[C@]3(C)[C@]2(C(=O)CO)O1 [FLURANDRENOLIDE] ) has residual activity equal to 99.16%

Taken from ChEMBL document CHEMBL3039007.
